- assay-name: Human pharmacokinetic study (oral, intravenous, intranasal cross-over)
- condition-label: male, plasma, po, 1 mg
parameter: Tmax (h)

> print(dat)
                           substance.smiles  unit.of.measurement  reported.value
1  O=C1CN=C(c2ccccc2Cl)c2cc([N+](=O)[O-])ccc2N1                    h               2

* * *

- assay-name: Solubilities of clonazepam in water-containing solvents
- Type: physicochemical
- condition-label: 1,2-dimethyxoethane, neat solvent, 25 °C, organic solvent or mixture, 1,2-dimethyxoethane 100% solvent, 0% water, 25° C. (neat, from Example 11)
parameter: solubility (mg/mL)

> print(dat)
                           substance.smiles  unit.of.measurement  reported.value
1  O=C1CN=C(c2ccccc2Cl)c2cc([N+](=O)[O-])ccc2N1                mg/mL            39.3

The values you see were collected from patent US8609651B2.
